pIC50 values by entry
# system.under.test: Prostaglandin G/H synthase 2 (Homo sapiens, UniProt P35354)
# Sequence (P35354 whole entry): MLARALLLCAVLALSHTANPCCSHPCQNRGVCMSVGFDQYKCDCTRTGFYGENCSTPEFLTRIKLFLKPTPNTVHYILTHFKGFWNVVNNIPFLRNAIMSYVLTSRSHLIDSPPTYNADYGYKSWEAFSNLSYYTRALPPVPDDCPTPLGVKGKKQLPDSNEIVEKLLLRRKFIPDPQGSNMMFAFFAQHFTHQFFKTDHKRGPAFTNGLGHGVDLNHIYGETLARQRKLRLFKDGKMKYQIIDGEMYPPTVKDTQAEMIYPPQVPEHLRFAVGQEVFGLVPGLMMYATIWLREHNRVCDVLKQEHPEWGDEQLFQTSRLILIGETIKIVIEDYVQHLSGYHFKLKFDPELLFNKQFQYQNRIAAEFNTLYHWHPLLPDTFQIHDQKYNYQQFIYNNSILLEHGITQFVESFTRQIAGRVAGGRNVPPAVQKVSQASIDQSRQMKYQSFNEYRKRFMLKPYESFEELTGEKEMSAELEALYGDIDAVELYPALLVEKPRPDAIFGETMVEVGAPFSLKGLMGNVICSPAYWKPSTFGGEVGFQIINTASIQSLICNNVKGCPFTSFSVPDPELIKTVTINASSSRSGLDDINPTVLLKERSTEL
# assay.remarks: Inhibition of human recombinant COX2 expressed in Sf21 cells assessed as conversion of arachidonic acid to PGE2 preincubated for 15 mins measured after 5 mins by enzyme immunoassay
pIC50: −log10 of the molar value.
recorded.endpoint: pIC50

compound	system.under.test	obs.value
NS(=O)(=O)c1cc2c(cc1Cl)S(c1ccc(Br)cc1)=NS2(=O)=O (stereo not drawn)	Prostaglandin G/H synthase 2 (Homo sapiens, UniProt P35354)	5.64
O=[N+]([O-])c1ccc2c(c1)S(=O)(=O)N=S2c1ccc(C(F)(F)F)cc1 (stereo not drawn)	Prostaglandin G/H synthase 2 (Homo sapiens, UniProt P35354)	5.52
CC(C)(C)c1ccc(S2=NS(=O)(=O)c3cc([N+](=O)[O-])ccc32)cc1 (stereo not drawn)	Prostaglandin G/H synthase 2 (Homo sapiens, UniProt P35354)	6.57
CCc1ccc(S2=NS(=O)(=O)c3cc([N+](=O)[O-])ccc32)cc1 (stereo not drawn)	Prostaglandin G/H synthase 2 (Homo sapiens, UniProt P35354)	5.77
CS(=O)(=O)c1ccc2c(c1)S(=O)(=O)N=S2c1ccc(Br)cc1 (stereo not drawn)	Prostaglandin G/H synthase 2 (Homo sapiens, UniProt P35354)	5.74
COc1ccc(S2=NS(=O)(=O)c3cc([N+](=O)[O-])ccc32)cc1 (stereo not drawn)	Prostaglandin G/H synthase 2 (Homo sapiens, UniProt P35354)	6.06
O=[N+]([O-])c1ccc2c(c1)S(=O)(=O)N=S2c1ccc(-c2ccccc2)cc1 (stereo not drawn)	Prostaglandin G/H synthase 2 (Homo sapiens, UniProt P35354)	6.30
CC(C)c1ccc(S2=NS(=O)(=O)c3cc([N+](=O)[O-])ccc32)cc1 (stereo not drawn)	Prostaglandin G/H synthase 2 (Homo sapiens, UniProt P35354)	6.14
